Tested on: BDF1 mice, P288 leukemia ip, survival T/C
Assay Method Text: NCI In Vivo Anticancer Drug Screen. Data for tumor model P288 Lymphocytic Leukemia (intraperitoneal) in B6D2F1 (BDF1) mice
Cond: endpoint: survival time, mean or median; dose: 2.0 mg/kg/injection; schedule: Q01DX010 (ip); vehicle: saline
Toxic doses and inconclusive results are not listed. How the source made its calls: active means survival T/C of 150% or more; inactive means T/C below 125% in these data.
// allowed return values: Y = active, N = inactive

Examples from the recorded data:
IN: Write down the call the test reported for this molecule. Item: Nc1nc(F)nc2c1ncn2C1OC(CO)C(O)C1O (stereo not drawn)
OUT: N

IN: What classification did `NC(=O)N(CCCl)N=O` end up with in this test?
OUT: Y

IN: For Nc1nc(=S)c2ncn(C3OC(CO)C(O)C3O)c2[nH]1 (stereo not drawn) , what call appears in the results of this test?
OUT: N

Further cases:
IN: Could you please tell me the result logged for NC(Cc1ccc(N(CCCl)CCCl)cc1)C(=O)O (stereo not drawn) in this assay?
OUT: Y

IN: Just curious, what result did `CN1CC[C@]23c4c5ccc(O)c4O[C@H]2C(=O)CC[C@H]3[C@H]1C5` get here?
OUT: N

IN: # fetch the recorded call for C=CC(CN1CC1)OC(C)=O (stereo not drawn) here
OUT: N

IN: Dear all, I need the recorded test outcome for `CC(=O)NC1=C(N2CC2)C(=O)C(NC(C)=O)=C(N2CC2)C1=O` , thank you.
OUT: N

IN: Assay outcome for CC(CCC(C)OS(C)(=O)=O)OS(C)(=O)=O (stereo not drawn) : what was it?
OUT: N

###

System: BDF1 mice, P288 leukemia ip, survival T/C
Assay Method Text: NCI In Vivo Anticancer Drug Screen. Data for tumor model P288 Lymphocytic Leukemia (intraperitoneal) in B6D2F1 (BDF1) mice
Cond: endpoint: survival time, mean or median; dose: 4.0 mg/kg/injection; schedule: Q01DX010 (ip); vehicle: saline
Inconclusive results and toxic doses are left out. Rule for the calls: active = survival T/C of 150% or more; inactive = T/C below 125% in these data.
Use one of these outcomes when replying: active, inactive

Worked set:
IN: Which result was noted for this compound in the test: `COc1cc2c(c(OC)c1OC)-c1ccc(N)c(=O)cc1[C@@H](NC(C)=O)CC2`
OUT: inactive

IN: Outcome? CC(CCC(C)OS(C)(=O)=O)OS(C)(=O)=O (stereo unspecified)
OUT: inactive

IN: In this assay, the call recorded for C=CC(CN1CC1)OC(C)=O (stereo unspecified) was what?
OUT: inactive

IN: // outcome(item) with item = `CN1CC[C@]23c4c5ccc(O)c4O[C@H]2C(=O)CC[C@H]3[C@H]1C5`
OUT: inactive

IN: Please let me know the test result on file for Nc1nc(F)nc2c1ncn2C1OC(CO)C(O)C1O (stereo unspecified) .
OUT: inactive

Here is the next item to consider.
IN: Just curious, what result did NC(Cc1ccc(N(CCCl)CCCl)cc1)C(=O)O (stereo unspecified) get here?
OUT: active

###

Tested on: BDF1 mice, P288 leukemia ip, survival T/C
Assay Method Text: NCI In Vivo Anticancer Drug Screen. Data for tumor model P288 Lymphocytic Leukemia (intraperitoneal) in B6D2F1 (BDF1) mice
Cond: endpoint: survival time, mean or median; dose: 400.0 mg/kg/injection; schedule: Q01DX010 (ip); vehicle: saline; higher = longer survival
Toxic doses and inconclusive results are not listed.
Property: T/C

T/C measured on `Nc1c(I)cc(I)cc1C(=O)O` = 106 % of control

Per the records, this compound ( O=c1cnn(C2OC(CO)C(O)C2O)c(=O)[nH]1 (stereo not given) ) has T/C equal to 118 % of control

Sample `CC(=O)Nc1ccc2nc3ccc(NC(C)=O)cc3[n+](-c3ccccc3)c2c1` ; T/C observed: 100 % of control

Reported T/C for CS(=O)(=O)OCC(O)C(O)C(O)C(O)COS(C)(=O)=O (stereo not given) was 114 % of control

---
Briefly, T/C measured for Cc1cc2nc3c(=O)[nH]c(=O)nc-3n(CC(O)C(O)C(O)C(O)CO)c2cc1C (stereo not given) : 112 % of control

###

Test system: BDF1 mice, P288 leukemia ip, survival T/C
Assay Method Text: NCI In Vivo Anticancer Drug Screen. Data for tumor model P288 Lymphocytic Leukemia (intraperitoneal) in B6D2F1 (BDF1) mice
Cond: endpoint: survival time, mean or median; dose: 250.0 mg/kg/injection; schedule: Q01DX Z (ip); vehicle: carboxymethylcellulose (CMC)
Toxic doses and inconclusive results are not listed. The calls were made as follows: active = survival T/C of 150% or more; inactive = T/C below 125% in these data.
Permitted responses: active, inactive

IN: Would you mind telling me which call this test gave CCOC(=O)NP(=O)(N1CC1(C)C)N1CC1(C)C (stereo not given) ?
OUT: active

***
IN: // return assay outcome for OCC1OC(n2cnc3c(=S)nc[nH]c32)C(O)C1O (stereo not given)
OUT: inactive

IN: Record lookup: outcome of this test for OCC1OC(n2cnc3c(Cl)ncnc32)C(O)C1O (stereo not given) ?
OUT: inactive

IN: Outcome? `O=CN(O)CC(=O)O`
OUT: inactive

IN: Name the outcome recorded for O=c1[nH]c(=O)n(C2CC(O)C(CO)O2)cc1I (stereo not given) in the assay.
OUT: inactive

###

Tested on: BDF1 mice, P288 leukemia ip, survival T/C
Assay Method Text: NCI In Vivo Anticancer Drug Screen. Data for tumor model P288 Lymphocytic Leukemia (intraperitoneal) in B6D2F1 (BDF1) mice
Cond: endpoint: survival time, mean or median; dose: 50.0 mg/kg/injection; schedule: Q01DX010 (ip); vehicle: saline; higher = longer survival
Inconclusive results and toxic doses are left out.
Property: T/C

Cc1cc2nc3c(=O)[nH]c(=O)nc-3n(CC(O)C(O)C(O)C(O)CO)c2cc1C (centres undefined) has a reported T/C of 118 % of control

Take each entry in turn and give its T/C.
1. [I][Hg][CH2]C1COC([CH2][Hg][I])CO1 (centres undefined)
2. C[C@H]1C(=O)O[C@@H]2CCN3CC=C(COC(=O)[C@](C)(O)[C@@]1(C)O)[C@H]23
3. O=C1C(NC(=O)C2CCCCC2)=C(N2CC2)C(=O)C(NC(=O)C2CCCCC2)=C1N1CC1

OUT:
88 % of control
94 % of control
94 % of control

###

System: BDF1 mice, P288 leukemia ip, survival T/C
Assay Method Text: NCI In Vivo Anticancer Drug Screen. Data for tumor model P288 Lymphocytic Leukemia (intraperitoneal) in B6D2F1 (BDF1) mice
Cond: endpoint: survival time, mean or median; dose: 1.25 mg/kg/injection; schedule: Q01DX Z (ip); vehicle: carboxymethylcellulose (CMC); higher = longer survival
Toxic doses and inconclusive results are not listed.
Property: T/C

Sample records with T/C:
Note to self: T/C recorded for `N#[N+]c1cnc([O-])[nH]c1=O` was 117 % of control

Consider Nc1ncnc2c1ccn2C1OC(CO)C(O)C1O (stereo unspecified) . Its measured T/C is 90 % of control

Entry CC(CCC(C)OS(C)(=O)=O)OS(C)(=O)=O (stereo unspecified) ; T/C = 88 % of control

Please fill in: T/C reported for COC12C(COC(N)=O)C3=C(C(=O)C(C)=C(N)C3=O)N1CC1C2N1C (stereo unspecified) = 114 % of control

// for each molecule in input: emit T/C
1. CCN(CC)c1ccc2cc3ccc(=[N+](CC)CC)cc-3oc2c1
2. NC(Cc1ccc(N(CCCl)CCCl)cc1)C(=O)O (stereo unspecified)

OUT:
106 % of control
110 % of control

###

Consider the following compounds; for each one, report its T/C.
Tested on: BDF1 mice, P288 leukemia ip, survival T/C
Assay Method Text: NCI In Vivo Anticancer Drug Screen. Data for tumor model P288 Lymphocytic Leukemia (intraperitoneal) in B6D2F1 (BDF1) mice
Cond: endpoint: survival time, mean or median; dose: 125.0 mg/kg/injection; schedule: Q01DX Z (sc); vehicle: steriod suspending solution; higher = longer survival
Toxic doses and inconclusive results are not listed.

These solved cases illustrate the format of a correct answer.
T/C reading for `C[C@]12CCC(=O)C=C1CC[C@@H]1[C@@H]2CC[C@@]2(C)[C@H]1CC[C@]2(C)O` : 100 % of control

Per the record, `CC[C@H](c1ccc(O)cc1)[C@@H](CC)c1ccc(O)cc1` has T/C of 90 % of control

Below is a list of compounds. For each, state its recorded T/C.
1. C[C@]12CCC(=O)C[C@H]1CC[C@@H]1[C@@H]2CC[C@@]2(C)[C@H]1CC[C@]2(C)O
2. CC/C(=C(/CC)c1ccc(O)cc1)c1ccc(O)cc1

OUT:
1: 98 % of control; 2: 91 % of control

###

Test system: BDF1 mice, P288 leukemia ip, survival T/C
Assay Method Text: NCI In Vivo Anticancer Drug Screen. Data for tumor model P288 Lymphocytic Leukemia (intraperitoneal) in B6D2F1 (BDF1) mice
Cond: endpoint: survival time, mean or median; dose: 125.0 mg/kg/injection; schedule: Q01DX Z (ip); vehicle: carboxymethylcellulose (CMC); higher = longer survival
Inconclusive results and toxic doses are left out.
Property: T/C

So, O=CCC(O)C(O)C(O)CO (stereo unspecified) ? Its T/C was 120 % of control

Quick note, T/C for `O=CN(O)CC(=O)O` landed at 100 % of control

Report T/C for each item below.
1. OCC1OC(n2cnc3c(=S)nc[nH]c32)C(O)C1O (stereo unspecified)
2. OCC1OC(n2cnc3c(Cl)ncnc32)C(O)C1O (stereo unspecified)
3. O=c1cn[nH]c(=O)[nH]1
4. CN(C)c1nc(N(C)C)nc(N(C)C)n1

OUT:
97 % of control
101 % of control
104 % of control
97 % of control

The measurements presented in this section are drawn from PubChem BioAssay AID216.
